Provenance of the data: patent US20240391936A1

Target or system: DDR1 (Homo sapiens, UniProt Q08345)
Sequence (Q08345 19-913): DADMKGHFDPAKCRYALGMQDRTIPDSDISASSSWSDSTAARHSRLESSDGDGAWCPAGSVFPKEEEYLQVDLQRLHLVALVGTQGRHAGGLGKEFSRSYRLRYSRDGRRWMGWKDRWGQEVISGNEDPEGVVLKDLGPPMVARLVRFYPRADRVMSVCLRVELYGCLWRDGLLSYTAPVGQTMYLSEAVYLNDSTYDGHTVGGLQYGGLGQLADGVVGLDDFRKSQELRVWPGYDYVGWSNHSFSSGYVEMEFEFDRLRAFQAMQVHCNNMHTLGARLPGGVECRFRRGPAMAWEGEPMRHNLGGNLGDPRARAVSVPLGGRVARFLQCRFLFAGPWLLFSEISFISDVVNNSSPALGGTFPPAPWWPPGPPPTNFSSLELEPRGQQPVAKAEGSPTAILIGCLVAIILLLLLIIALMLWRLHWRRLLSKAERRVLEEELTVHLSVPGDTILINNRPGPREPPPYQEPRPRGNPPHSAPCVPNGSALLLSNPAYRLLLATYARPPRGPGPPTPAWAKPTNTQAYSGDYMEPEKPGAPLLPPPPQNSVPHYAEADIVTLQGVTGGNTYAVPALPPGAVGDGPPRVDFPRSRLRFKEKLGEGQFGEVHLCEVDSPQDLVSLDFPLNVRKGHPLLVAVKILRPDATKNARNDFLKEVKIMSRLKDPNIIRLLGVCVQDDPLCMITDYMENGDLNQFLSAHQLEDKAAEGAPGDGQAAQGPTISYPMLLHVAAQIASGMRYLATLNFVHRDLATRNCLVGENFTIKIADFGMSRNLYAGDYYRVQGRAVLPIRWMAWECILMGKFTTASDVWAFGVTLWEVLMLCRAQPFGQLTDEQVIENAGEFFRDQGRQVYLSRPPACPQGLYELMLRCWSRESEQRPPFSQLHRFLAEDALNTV
pIC50: −log10 of the molar value.
Attribute measured: pIC50

>>> result("O=C(Nc1cc(CN2CCC2)cc(C(F)(F)F)c1)c1csc2c1CCN(C(=O)c1cnc3ccccn13)C2")
"> 7.60"
>>> result("CN(C)[C@H]1CCN(Cc2cc(NC(=O)c3csc4c3CCN(C(=O)c3cnc5ccccn35)C4)cc(C(F)(F)F)c2)C1")
"7.30 to 7.60"
>>> result("Cn1nc(C(C)(C)C)cc1NC(=O)c1csc2c1CCN(C(=O)c1cnc3ccc(F)cn13)C2")
"7.10 to 7.30"
>>> result("O=C(Nc1cc(CN2CC3CC2CO3)cc(C(F)(F)F)c1)c1csc2c1CCN(C(=O)c1cnc3ccccn13)C2 (stereo not shown)")
"7.30 to 7.60"
